# TARGET_OF_ASSAY: D374Y PCSK9 binding to LDLR (Homo sapiens, UniProt Q8NBP7, D374Y)
# METHOD_NOTES: Large scale receptor ligand blocking screen and functional classification of ABPs
# CONDITION: functional assays of the screening
RESULT_TYPE: neutralizing ability (blocking PCSK9/LDLR)

In the examples that follow, each entry is paired with its recorded neutralizing ability (blocking PCSK9/LDLR).
MOLECULE	OBSERVED_MEASUREMENT
25A7: anti-PCSK9 antibody; light/heavy variable region SEQ ID NO 15/58; 25A7.3 referred to as 25A7 (antibody, listed as Homo sapiens, V domains shown) VH: QVQLVQSGAEVKKPGASVKVSCKASGYTFPSYGISWVRQAPGQGLEWMGWISAYNGNTNYAEKLQGRVTMTTDTSTSTAYMEVRSLRSDDTAVFYCARGYVMDVWGQGTTVTVSS VL: QSALTQPASVSGSPGQSITISCTGTSSDVGRYNSVSWYQHHPGKAPKVMIYEVSNRPSGVSTRFSGSKSGNTASLTISGLQAEDEADYYCSSYTSSSVVFGGGTKLTVL	neutralizing
13H1: anti-PCSK9 antibody; light/heavy variable region SEQ ID NO 28/91 (antibody, listed as Homo sapiens, V domains shown) VH: QVQLQQSGPGLVKPSQTLSLTCAISGDSVSSNSAAWNWIRQSPSRGLEWLGRTYYRSKWYKNYSVSVKSRITINPDTSKNQFSLQLNSVTPGDTAVYYCARGGPTAAFDYWGQGTLVTVSS VL: LSALTQPASVSGSPGQSITISCTGTSSDVGNYNLVSWYQQYSGKAPKLMIYEVSKRPSGVSNRFSGSKSGNTASLTISGLQAEDEADYYCCSYAGSSTLVFGGGTKLTVL	non-neutralizing
21B12: human anti-PCSK9 monoclonal antibody; light/heavy variable region SEQ ID NO 23/49 (antibody, listed as Homo sapiens, V domains shown) VH: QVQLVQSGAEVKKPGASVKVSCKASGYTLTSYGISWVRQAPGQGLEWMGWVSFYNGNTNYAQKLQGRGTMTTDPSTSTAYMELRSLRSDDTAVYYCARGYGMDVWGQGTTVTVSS VL: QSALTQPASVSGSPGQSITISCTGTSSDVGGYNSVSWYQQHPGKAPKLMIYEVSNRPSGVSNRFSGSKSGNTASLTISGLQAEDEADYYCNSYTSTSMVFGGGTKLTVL	neutralizing
27B2: anti-PCSK9 antibody; light/heavy variable region SEQ ID NO 13/87 (antibody, listed as Homo sapiens, V domains shown) VH: QVQLQESGPGLVKPSQTLSLTCTVSGGSISSGGYYWSWIRQHPGKGLEWIGYIYNSGSTYYNPSLKSRVTISVDTSKNQFSLKLSSVTAADTAVYYCAREDTAMVPYFDYWGQGTLVTVSS VL: QSVLTQPPSVSGAPGQRVTISCTGSSSNIGAHYDVHWYQQVPGTAPKLLIYGNTYRPSGVPDRFSGSKSGTSASLAITGLQAEDEADYYCQSYDNSLSGVVFGGGTKLTVL	non-neutralizing

Read the next record carefully.
Problem: Need neutralizing ability (blocking PCSK9/LDLR), item 13B5: anti-PCSK9 antibody; light/heavy variable region SEQ ID NO 42/69 (antibody, listed as Homo sapiens, V domains shown) VH: EVQLLESGGGLVQPGGSLRLSCAASGFTFSSYAMSWVRQAPGKGLEWVSTISGSGGRTYYADSVKGRFTISRDNSKNTLYLQMNSLRAEDTAVYYCAKEVGSPFDYWGQGTLVTVSS VL: QSVLTQPPSVSAAPGQKVTISCSGSNSNIGNNYVSWYQQLPGTAPKLLIYDNNKRPSGIPDRFSGSNSGTSATLGITGLQTGDEADYYCGTWDSSLSAVVFGGGTKLTVL
Result: non-neutralizing
